assay: in vivo; details: male, CFW, mouse, po, 5 mg/kg
Known AUC(0-t) of a selection of compounds
Unit µM·h implied. Number only.

1) O=C(Nc1ccc(OC(F)(F)F)cc1)NC1CCN(C(=O)C2CC2)CC1	164

Here's the next entry for you.
AUC(0-t) for O=C(O)CCCCCCCCCCCNC(=O)NC12CC3CC(CC(C3)C1)C2 [AUDA, reference compound] is 0.05

---

assay: in vivo; settings: male, CFW, mouse, po, 5 mg/kg
assay endpoint: Cmax (µM)
Unit µM implied. Number only.

Cmax for O=C(Nc1ccc(OC(F)(F)F)cc1)NC1CCN(C(=O)C2CC2)CC1 is 8.9

Source listed as paper PMC3285450.
